# System: UACC-62
# EXPERIMENT_NOTES: NCI tumour cell line growth inhibition, 48 h
Calls of active or inactive are those of the source. Cut-off read from the data, not from the text of the source: active = GI50 up to about 1.1 µM and inactive = higher.
Choose one outcome from this list and give only that: yes (1) for active, no (0) for inactive

Reference set (3 entries):
COC(=O)C12CC(c3ccccc31)C1C(=O)OC(=O)C12 (stereo unspecified) = no (0)
CCCC(C)c1c(Cl)nc(Cl)nc1Cl (stereo unspecified) = no (0)
CO/N=C(\C)c1cccc(Nc2nc3ccccc3c3occc23)c1 = yes (1)

For this compound, state the assay outcome: O=C(CNc1cccc(Cl)c1)Nn1c(-c2ccccc2)nc2ccccc2c1=O no (0)

For this compound, state the assay outcome: CN(C)CC1CCCC/C1=N/OC(=O)c1ccc(Cl)cc1 (stereo unspecified) no (0)

For this compound, state the assay outcome: Cc1nc(=O)n2c(c1C(=O)Nc1ccc(Cl)cc1)NCCC2 no (0)

For this compound, state the assay outcome: CC(=O)OCCOCNC(=S)N/N=C/c1cc([N+](=O)[O-])ccc1O no (0)

###

# System: OVCAR-8
# EXPERIMENT_NOTES: NCI tumour cell line growth inhibition, 48 h
The source made the active and inactive calls. No stated cut-off is given here; in the data, active = GI50 up to about 1.1 µM and inactive = higher.
Choose one outcome from this list and give only that: true for active, false for inactive

Reference set (4 entries):
Cc1ccc(C2(c3ccc(Cl)cc3)c3ccccc3C3=NCCN32)cc1 (stereo unspecified) = false
O=C1NC2(CCNCC2)Oc2ccccc21 = false
O=C1C(Cl)N(c2cccc([N+](=O)[O-])c2)C1c1c[nH]c2ccccc12 (stereo unspecified) = false
CC[C@](C)(O)C(=O)O[C@H]1C(=O)O[C@@H]2C[C@H]3C(C)=CC(=O)[C@@H](O)[C@]3(C)[C@H]3[C@@]4(O)OC[C@]32[C@@H]1[C@@H](C)[C@H]4O [GLAUCARUBINONE] = true

For this molecule, state the assay outcome: CCOC(=O)c1nc2cc(N3CCOCC3)c(F)cc2[nH]c1=O false

For this molecule, state the assay outcome: CC1=C(CCC(C)CO)O[C@H]2C[C@H]3[C@@H]4CC[C@H]5C[C@@H](O)CC[C@]5(C)[C@H]4CC(=O)[C@]3(C)[C@@H]12 (stereo partly specified) false

###

Listing of entries alongside the reported GI50.
# Test system: SK-MEL-28
# EXPERIMENT_NOTES: NCI tumour cell line growth inhibition, 48 h
Calls of active or inactive are those of the source. No stated cut-off is given here; in the data, active = GI50 up to about 1.1 µM and inactive = higher.

Worked examples follow.
CN(C)c1ccc(/C=C2\N=C(N/N=C/c3ccccc3O)NC2=O)cc1 = 25.1 µM (inactive)
CC(C)(C)c1ccc(O)c(CN(Cc2cc(C(C)(C)C)ccc2O)c2ccccc2)c1 = 17.5 µM (inactive)
CCOC(=O)c1c(N2CCCC2)ncn(-c2ccccc2)c1=S = > 100 µM (inactive)
C=C(C(=C)P(=S)(c1ccccc1)c1ccccc1)P(=S)(c1ccccc1)c1ccccc1 = > 100 µM (inactive)

Now turn to the next compound.
Fill in: GI50 of CCOC(=O)/C=C/CC(C)(C)COC(C)=O is ___ > 10 µM (inactive)

###

Listing of entries alongside the reported GI50.
# Tested on: CCRF-CEM
# EXPERIMENT_NOTES: NCI tumour cell line growth inhibition, 48 h
Active and inactive are the calls of the source. Cut-off read from the data, not from the text of the source: active = GI50 up to about 1.1 µM and inactive = higher.

Fill in: GI50 of COc1ccc(-c2c(C#N)c(N)n(C3OCC(O)C(O)C3O)c(=S)c2C#N)cc1 (configuration not stated) is ___ > 100 µM (inactive)

Fill in: GI50 of Cc1nc(O)nc(N/N=C/c2ccc(Cl)cc2)c1C(=O)NC(C)(CO)CO is ___ > 100 µM (inactive)
